Give measured inhibition for each item. Keep answers brief.
SUBJECT OF TEST: Prostaglandin G/H synthase 2 (Homo sapiens) (UniProt P35354)
Sequence (P35354 whole entry): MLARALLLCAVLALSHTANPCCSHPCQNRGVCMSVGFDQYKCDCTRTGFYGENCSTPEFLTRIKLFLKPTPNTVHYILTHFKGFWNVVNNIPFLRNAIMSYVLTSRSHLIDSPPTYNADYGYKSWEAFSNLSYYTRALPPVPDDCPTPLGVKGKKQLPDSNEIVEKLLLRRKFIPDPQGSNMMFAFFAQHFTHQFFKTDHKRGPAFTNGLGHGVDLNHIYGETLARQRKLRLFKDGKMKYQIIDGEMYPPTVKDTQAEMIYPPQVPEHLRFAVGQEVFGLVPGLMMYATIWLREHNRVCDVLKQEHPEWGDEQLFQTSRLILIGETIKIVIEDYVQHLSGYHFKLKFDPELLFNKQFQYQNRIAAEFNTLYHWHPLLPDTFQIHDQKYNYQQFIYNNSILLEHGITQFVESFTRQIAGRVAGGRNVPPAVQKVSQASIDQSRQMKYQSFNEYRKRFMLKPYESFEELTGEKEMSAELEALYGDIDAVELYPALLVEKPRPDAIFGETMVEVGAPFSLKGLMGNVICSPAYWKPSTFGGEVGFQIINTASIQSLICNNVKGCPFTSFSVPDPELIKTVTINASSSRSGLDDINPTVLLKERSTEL
PROTOCOL NOTES: Inhibition of human recombinant COX-2 assessed as […] production at 10 uM using arachidonic acid as substrate preincubated for 10 mins followed by substrate addition and measured after 2 mins by enzyme immunoassay relative to control
STUDY CONDITIONS: time 12.0 min
Give bare numbers, in %.

Examples from the recorded data:
Cc1c(CC(=O)NCCO)cc(-c2ccc(S(N)(=O)=O)cc2)n1-c1ccc(F)cc1	18
Cc1c(CC(=O)NCCO[N+](=O)[O-])cc(-c2ccc(S(N)(=O)=O)cc2)n1-c1ccc(F)cc1	16
Cc1c(CC(=O)NCCO)cc(-c2ccc(S(N)(=O)=O)cc2)n1-c1cccc(F)c1	15

Alright, here's another molecule for you.
Look at this molecule and give its reported inhibition. `Cc1c(CC(=O)NCCO[N+](=O)[O-])cc(-c2ccc(S(N)(=O)=O)cc2)n1-c1cccc(F)c1`
45
